- System: SNB-19
- assayProcedure: NCI tumour cell line growth inhibition, 48 h
Calls of active or inactive are those of the source. No stated cut-off is given here; in the data, active = GI50 up to about 1.1 µM and inactive = higher.
valueKind: GI50

Reference set (4 entries):
Could you share which GI50 value was measured for Nc1ccc(Nc2cc(=O)[nH]c(=O)[nH]2)cc1Cl ?
> 100 µM (inactive)

Endpoint output: GI50 of Cc1cccc(NC2=NC(=O)C(CC(=O)Nc3ccc(Cl)cc3C)S2)c1 (stereo not given) . Value?
> 100 µM (inactive)

Which GI50 value belongs to CN(C)c1ccc(C(N)=O)cn1 ?
> 100 µM (inactive)

Returns the measured GI50 for the input molecule. Input: COC(=O)C(C#N)=C1c2ccccc2Oc2ccccc21
41.6 µM (inactive)

Attention now shifts to the item below.
What does the record list as GI50 for Cc1ccc(CC2(OCCN(C)C)CCC(C(C)(C)C)CC2)cc1 (stereo not given) ?
4.39 µM (inactive)

The reported numbers originate from ChEMBL document CHEMBL1201862.
